molecular target: Glutamate [NMDA] receptor; experiment: In vitro inhibitory activity against [3H](+)-MK-801 binding to PCP receptor in guinea pig brain membrane homogenates; assay type: cell membranes, Cavia porcellus
pIC50: −log10 of the molar value.
molecules and their reported pIC50
parameter_measured: pIC50

- Cc1ccccc1N=C(N)NC1CCCCC1: 5.00
- CC12CC3CC(C)(C1)CC(/N=C(\N)Nc1ccccc1/C=C/c1ccccc1)(C3)C2: < 5.00
- CC12CC3CC(C)(C1)CC(/N=C(\N)Nc1ccccc1I)(C3)C2: 5.40
- N=C(NC1CC2CCC1C2)NC1CC2CCC1C2 (centres undefined): 5.30
- CC(C)c1ccccc1N=C(N)Nc1ccccc1C(C)C: 6.56
- Cc1ccccc1NC(N)=NC1CC2CCC1C2 (centres undefined): < 5.00
- N=C(Nc1ccccc1I)Nc1ccccc1/C=C/c1ccccc1: < 5.00
- NC(=Nc1ccccc1I)NC12CC3CC(CC(C3)C1)C2: < 5.00
- N=C(Nc1ccccc1CCc1ccccc1)NC12CC3CC(CC(C3)C1)C2: < 5.00
- N=C(Nc1ccccc1I)NC1CC2CCC1C2 (centres undefined): < 5.00
- N=C(Nc1ccccc1/C=C/c1ccccc1)NC1C2CC3CC(C2)CC1C3 (centres undefined): < 5.00
- N=C(Nc1ccccc1I)NC1C2CC3CC(C2)CC1C3 (centres undefined): < 5.00
- CC(C)c1cccc(NC(=N)Nc2cccc(C(C)C)c2)c1: 6.30
- Cc1ccccc1/N=C(/N)Nc1ccccc1/C=C/c1ccccc1: < 5.00

----------
target: sigma receptor (guinea pig); assay: In vitro inhibitory activity against [3H]- (+)-3-PPP binding to sigma receptor in guinea pig brain membrane homogenates
parameter_measured: IC50

* N=C(N)N(c1ccccc1)c1ccccc1 | > 100 µM

----------
molecular target: Glutamate [NMDA] receptor; experiment: In vitro inhibitory activity against [3H]-TCP binding to PCP receptor in guinea pig brain membrane homogenates; assay type: cell membranes, Cavia porcellus
Note to self: IC50 under 3 µM means criterion met, ties and anything higher get criterion not met.

- N=C(NC1CCCCC1)NC12CC3CC(CC(C3)C1)C2: criterion not met
- NC(=NC1CCCCC1)NC1CCCCC1: criterion not met
- NC1=NCCN1c1ccccc1: criterion not met
- Cc1cc(Br)ccc1N=C(N)Nc1ccc(Br)cc1C: criterion not met
- NC1=Nc2ccccc2CN1c1ccccc1: criterion not met
- N=C(NC12CC3CC(CC(C3)C1)C2)NC12CC3CC(CC(C3)C1)C2: criterion not met
- Cc1ccccc1NC(N)=Nc1ccccc1[N+](=O)[O-]: criterion met
- Cc1ccccc1N=C(N)NC1CCCCC1: criterion not met
- CCc1cccc(NC(=N)Nc2cccc(CC)c2)c1: criterion met
- N=C(NCc1ccccc1)NCc1ccccc1: criterion not met
- NC(=Nc1ccccc1I)Nc1ccccc1I: criterion met
- Cc1ccccc1NC(=N)Nc1ccccc1C [DITOLYLGUANIDINE]: criterion not met
- Cc1ccccc1/N=C(/N)Nc1cccc(O)c1: criterion met
- N=C(NC1C2CC3CC(C2)CC1C3)NC1C2CC3CC(C2)CC1C3 (configuration not stated): criterion not met
- Cc1ccccc1/N=C(/N)Nc1ccc(N)cc1C: criterion not met
- CN=C(NC1CCCCC1)NC1CCCCC1: criterion not met
- Cc1cc(N)ccc1NC(=N)Nc1ccc(N)cc1C: criterion not met
- N=C(Nc1ccccc1)Nc1ccccc1: criterion not met
- CNC(=N)NC: criterion not met
- Cc1ccccc1/N=C(/N)Nc1ccc([N+](=O)[O-])cc1C: criterion not met
- ONC(=NC1CCCCC1)NC1CCCCC1: criterion not met
- Cc1ccccc1/N=C(\N)NC12CC3CC(CC(C3)C1)C2: criterion not met
- Cc1ccccc1/N=C(/N)Nc1c(C)cccc1C: criterion met
- CCc1ccccc1N=C(N)Nc1ccccc1CC: criterion met
- Cc1cc([N+](=O)[O-])ccc1NC(N)=Nc1cccc(O)c1: criterion not met
- Cc1ccccc1N=C(N)Nc1ccccc1N: criterion not met
- N=C(Nc1ccccc1C(F)(F)F)Nc1ccccc1C(F)(F)F: criterion not met
